MEASUREMENT_PROTOCOL: Solubility in various solvents at 37° C.
Type: physicochemical
COND: aqueous buffer; pH 8 buffer, ionic strength 0.2, 37° C., based on the weight of amlodipine
MEASUREMENT_LABEL: solubility (µg/mL)

>  <COMPOUND>
CCOC(=O)C1=C(COCCN)NC(C)=C(C(=O)OC)C1c1ccccc1Cl (stereo not shown) [Besylate, Amlodipine Besylate]

>  <MEASUREMENT_LABEL>
solubility

>  <UOM>
µg/mL

>  <OBSERVED_RESULT>
1390

$$$$

----------
MEASUREMENT_PROTOCOL: Solubility in various solvents at 37° C.
Format: physicochemical
COND: aqueous buffer; pH 4 buffer, ionic strength 0.2, 37° C., based on the weight of amlodipine

>  <COMPOUND>
CCOC(=O)C1=C(COCCN)NC(C)=C(C(=O)OC)C1c1ccccc1Cl (stereo not shown) [Besylate, Amlodipine Besylate]

>  <UOM>
µg/mL

>  <solubility>
3150

$$$$

This collection of values is drawn from patent US6756390B2.
